Would you mind telling me the reported inhibition of each entry?
Molecular target: 5-hydroxytryptamine receptor 5A (Homo sapiens) (UniProt P47898)
Sequence (P47898 whole entry, looked up): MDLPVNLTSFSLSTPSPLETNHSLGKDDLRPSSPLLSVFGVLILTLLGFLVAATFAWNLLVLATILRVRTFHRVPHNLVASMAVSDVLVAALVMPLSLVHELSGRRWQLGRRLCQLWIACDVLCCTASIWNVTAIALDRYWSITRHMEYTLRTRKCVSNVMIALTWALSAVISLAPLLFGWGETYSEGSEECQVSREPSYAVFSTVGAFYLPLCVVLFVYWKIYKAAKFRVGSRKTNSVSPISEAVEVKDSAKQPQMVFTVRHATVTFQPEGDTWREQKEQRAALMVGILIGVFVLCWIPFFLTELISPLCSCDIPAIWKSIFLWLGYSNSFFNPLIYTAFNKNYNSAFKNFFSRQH
Assay: inverse agonism at human 5-HT5A receptor – cell-based, luminescence, full-deck HTS, counter-screen for OPRM1-OPRD1 heterodimer inverse agonist project, primary screen (AID 504634);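 further: 0% = cells with DMSO and 100% = no-cell wells with DMSO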
Conditions: HTR5A cell line, at 9.3 µM, hits give high values
Hit rate of the full screen: of about 340,000 compounds, about 280 (0.082%) were called active. This excerpt belongs to a sample that is enriched for actives.
Report the figure in % without appending any unit label.

Consider the compound O=C1CC(C(=O)O)NC(=S)N1 (stereo unspecified) and give its measured inhibition.
-5.32

Consider the compound O=C(O)c1ccc(NS(=O)(=O)c2cccc3nsnc23)cc1 and give its measured inhibition.
-11.7

Fill in the blank: the reported inhibition of O=[N+]([O-])/C=C/c1ccc2c(ccn2Cc2ccccc2)c1 is ____.
29.1

Look at this compound and give its reported inhibition. Cc1cccn2c(=O)c(C=O)c(Nc3ccc(S(N)(=O)=O)cc3)nc12
-18.2

Query: inhibition; subject: COc1ccc(N(CC(=O)NC2CCCCC2)S(=O)(=O)c2c(C)[nH]c(=O)[nH]c2=O)cc1
1.68

Consider the compound O=C(CSc1nnc2ccc(-c3ccncc3)nn12)N1CCCCC1 and give its measured inhibition.
-11.3

Please report the recorded inhibition for Cc1ccc(C(=O)NCC(=O)NC2CC2)cc1 .
4.21

May I ask what inhibition has been recorded for CCN(c1ccccc1)S(=O)(=O)c1ccc2[nH]c(=O)[nH]c2c1 ?
4.19

Endpoint output: inhibition of CCNc1nc(NCC)nc(N(C)n2cnnc2)n1 . Value?
13

Looking for the measured inhibition of Cc1ccc(C(=O)OCC(=O)N2CC(C)CC(C)C2)cc1S(=O)(=O)N1CCCCC1 (stereo unspecified) , can you help?
11

Endpoint output: inhibition of O=c1[nH]n2c(=O)c3c([nH]c2c1N=Nc1ccccc1)CCC3 . Value?
17

====

Target: 5-hydroxytryptamine receptor 5A (Homo sapiens)
Assay: inverse agonism at human 5-HT5A receptor – cell-based, luminescence, full-deck HTS, counter-screen for OPRM1-OPRD1 heterodimer inverse agonist project, primary screen (AID 504634);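 further: 0% = cells with DMSO and 100% = no-cell wells with DMSO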
Conditions: HTR5A cell line, at 9.3 µM, hits give high values
Screen size: about 340,000 compounds; about 280 (0.082%) were called active. The entries come from a sample that favours actives as a whole.
Provide the recorded inhibition for the entries that follow.
Write the number in % without appending the unit.

Give its inhibition value. Item: Cn1cnc(C(F)(F)F)c1-c1ccc([N+](=O)[O-])cc1
8.1

Item under review: Cc1cc(C)cc(NC(=O)CSCc2cnn(-c3ccccc3)c2-n2cccc2)c1 . Reported inhibition?
3.55

I have this compound here, OCCN1CCN(CCO)C1=S , and I need its recorded inhibition.
12.7

So what does the record say about inhibition for COc1ccc(S(=O)(=O)N2CCSCC2)cc1 ?
16.4

Given COc1ccc(S(=O)(=O)N2CCOC2CNC(=O)C(=O)NCc2ccc(F)cc2)cc1 (stereo not drawn) , state its recorded inhibition.
7.37

Recorded inhibition for Cc1[nH]c2ccccc2c1C(=O)COC(=O)c1c(-c2ccccc2)noc1C , please?
-12.9

Need inhibition, item CC1(C)CC(=O)C(C2c3ccccc3S(=O)(=O)c3ccccc32)C(=O)C1
-6.15

Reported inhibition for CC(C)CCN1CCN(C/C=C/c2ccco2)CC1CCO (stereo not drawn) : what is it?
-0.83

Which inhibition is reported for this compound? O=C(CCCOc1ccccc1)NNC(=O)c1ccc(Cl)cc1
-22.2

# input compound: CCCC1NC(=O)NC(C)=C1C(=O)OCC (stereo not drawn) ; wanted: its inhibition
-17.2

Request the reported inhibition associated with CC(=O)N1CCN(c2ccc(NCc3ccc(C(C)C)cc3)cc2)CC1
-28.6

# inhibition lookup, item O=c1ccc2c(-c3ccccc3S(=O)(=O)O)c3ccc(O)c(O)c3oc-2c1O
24.5

Looking for the measured inhibition of O=c1[nH]nc(Cc2ccccn2)c2ccccc12 , can you help?
34.8

Field request: inhibition | item: CCOc1ccc(C(=O)NC(=S)Nc2ccc(N3CCOCC3)c(Cl)c2)cc1[N+](=O)[O-]
30.9

Need inhibition, item CCCCc1c(O)nc2n(c1=O)CCS2
-25.6

Bench note: what inhibition did COc1cc(C(=S)N2CCOCC2)cc(OC)c1OC(=O)c1cc([N+](=O)[O-])c(C)c([N+](=O)[O-])c1 show?
-9.45

Quick one: inhibition for CCCCCCCCc1c(O)nc(-n2[nH]c(C)c(CCO)c2=O)[nH]c1=O ?
23.4

Returns the measured inhibition for the input compound. Input: O=S(=O)(Nc1ccc(-c2ccc(N3CCOCC3)nn2)cc1)c1cc(Cl)ccc1Cl
-25.2

inhibition for CCSc1nc2sc3c(c2c(=O)n1-c1ccc(C)cc1)CCN(C)C3 ?
-7.48

What inhibition value was documented for this compound, Cc1cccc(C(=O)OC(C)CN2CCCC2)c1 (stereo not drawn) ?
-16.4

So what does the record say about inhibition for COc1ccc2oc(C(=O)N(CC(C)C)C3CCS(=O)(=O)C3)c(C)c2c1 (stereo not drawn) ?
5.04

Suppose we examine the compound CCCCCc1c(C)nc(N2CCN(Cc3ccc4c(c3)OCO4)CC2)[nH]c1=O ; what inhibition value has been reported?
-8.1

Given CC1(c2nnc(Cc3ccccc3)o2)CC(c2ccccc2F)=NO1 (stereo not drawn) , state its recorded inhibition.
-30.2
